Source of measurements: a collection of fitness landscapes (doi:10.1016/j.celrep.2020.107928)

B1: Caulobacter ParB omega fusion; a variant is named by its letters at X, in order, B8GW30 (parent)
chain: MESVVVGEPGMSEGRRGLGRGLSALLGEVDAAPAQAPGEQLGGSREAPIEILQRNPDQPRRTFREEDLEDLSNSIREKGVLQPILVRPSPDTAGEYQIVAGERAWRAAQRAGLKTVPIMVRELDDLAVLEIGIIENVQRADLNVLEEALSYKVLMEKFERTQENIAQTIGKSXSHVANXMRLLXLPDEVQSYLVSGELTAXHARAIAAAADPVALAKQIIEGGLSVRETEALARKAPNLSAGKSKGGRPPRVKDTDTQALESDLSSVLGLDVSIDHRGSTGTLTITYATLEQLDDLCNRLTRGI

# Variants of: B1
# measurement-description: one-hybrid fitness for binding NBS DNA (the Noc-binding site; scaled: cognate 1, non-cognate 0); higher = stronger binding
# cond: with NBS DNA site
In all, about 81,000 sequences were measured (“one-hybrid fitness for binding NBS DNA”: median about -0.1, highest 2% from about 0.36 on). Many of the other results were omitted from the sample, so the highest values are more common in it than they were.
metric-name: one-hybrid fitness for binding NBS DNA

| var | one-hybrid fitness for binding NBS DNA |
| --- | --- |
| AGPD | ≤ 0.2 |
| FHGR | ≤ 0.2 |

one-hybrid fitness for binding NBS DNA recorded for this variant, RSFI , is ≤ 0.2

one-hybrid fitness for binding NBS DNA recorded for this variant, QTAD , is ≤ 0.2
